Target: P-gp (Homo sapiens, UniProt P08183)
Construct: expressed in transfected cells; host or cells: MDCK-MDR1 (Madin-Darby canine kidney cells transfected with human MDR1)
Sequence (P08183 whole entry): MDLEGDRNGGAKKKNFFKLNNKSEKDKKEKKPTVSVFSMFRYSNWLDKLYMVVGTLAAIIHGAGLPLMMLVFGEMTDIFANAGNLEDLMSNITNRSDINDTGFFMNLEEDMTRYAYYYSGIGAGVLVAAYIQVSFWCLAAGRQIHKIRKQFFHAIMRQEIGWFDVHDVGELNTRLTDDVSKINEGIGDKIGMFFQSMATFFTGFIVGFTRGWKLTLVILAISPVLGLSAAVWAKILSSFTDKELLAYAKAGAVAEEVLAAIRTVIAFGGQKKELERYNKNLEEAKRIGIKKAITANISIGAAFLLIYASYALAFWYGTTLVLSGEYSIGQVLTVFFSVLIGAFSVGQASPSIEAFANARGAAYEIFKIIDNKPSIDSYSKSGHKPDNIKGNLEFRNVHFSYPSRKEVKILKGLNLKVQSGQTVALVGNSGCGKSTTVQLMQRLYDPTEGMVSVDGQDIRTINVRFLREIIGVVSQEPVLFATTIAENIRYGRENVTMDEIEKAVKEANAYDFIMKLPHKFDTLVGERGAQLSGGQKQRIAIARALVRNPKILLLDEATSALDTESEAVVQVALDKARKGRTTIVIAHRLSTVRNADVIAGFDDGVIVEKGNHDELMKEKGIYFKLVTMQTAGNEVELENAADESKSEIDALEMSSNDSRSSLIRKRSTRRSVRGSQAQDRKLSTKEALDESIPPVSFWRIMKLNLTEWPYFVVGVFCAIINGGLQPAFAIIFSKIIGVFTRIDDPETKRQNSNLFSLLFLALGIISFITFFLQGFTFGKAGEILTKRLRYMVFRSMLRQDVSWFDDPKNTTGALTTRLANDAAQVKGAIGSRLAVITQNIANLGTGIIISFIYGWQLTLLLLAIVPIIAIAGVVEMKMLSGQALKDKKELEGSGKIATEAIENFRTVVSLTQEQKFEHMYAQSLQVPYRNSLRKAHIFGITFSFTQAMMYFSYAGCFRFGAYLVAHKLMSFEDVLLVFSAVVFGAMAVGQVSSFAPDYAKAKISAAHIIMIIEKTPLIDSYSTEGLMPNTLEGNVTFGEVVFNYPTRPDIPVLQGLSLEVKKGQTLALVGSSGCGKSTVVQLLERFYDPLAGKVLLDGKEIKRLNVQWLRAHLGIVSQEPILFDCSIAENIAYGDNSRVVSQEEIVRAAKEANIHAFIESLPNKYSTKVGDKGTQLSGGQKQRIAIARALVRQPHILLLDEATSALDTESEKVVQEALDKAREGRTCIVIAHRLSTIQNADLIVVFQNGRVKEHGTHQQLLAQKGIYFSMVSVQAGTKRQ
Experiment: Permeation of PTX through MDCK–MDR1 cell monolayers
Format: in vitro ADME
Settings: dog, PTX alone or with VRP 100 μM
measurement_label: Papp B→A at 120 min, 1 μg/mL (×10⁻⁶ cm/s)

compound_string: CC(=O)O[C@H]1C(=O)[C@@]2(C)[C@H]([C@H](OC(=O)c3ccccc3)[C@]3(O)C[C@H](OC(=O)[C@H](O)[C@@H](NC(=O)c4ccccc4)c4ccccc4)C(C)=C1C3(C)C)[C@]1(OC(C)=O)CO[C@@H]1C[C@@H]2O
measurement: 86.4

// data source = paper PMC9060980
